These data points were gathered from patent US20140288052A1.

Molecular target: SIRT1 (Homo sapiens, UniProt Q96EB6)
Sequence (Q96EB6 1-747): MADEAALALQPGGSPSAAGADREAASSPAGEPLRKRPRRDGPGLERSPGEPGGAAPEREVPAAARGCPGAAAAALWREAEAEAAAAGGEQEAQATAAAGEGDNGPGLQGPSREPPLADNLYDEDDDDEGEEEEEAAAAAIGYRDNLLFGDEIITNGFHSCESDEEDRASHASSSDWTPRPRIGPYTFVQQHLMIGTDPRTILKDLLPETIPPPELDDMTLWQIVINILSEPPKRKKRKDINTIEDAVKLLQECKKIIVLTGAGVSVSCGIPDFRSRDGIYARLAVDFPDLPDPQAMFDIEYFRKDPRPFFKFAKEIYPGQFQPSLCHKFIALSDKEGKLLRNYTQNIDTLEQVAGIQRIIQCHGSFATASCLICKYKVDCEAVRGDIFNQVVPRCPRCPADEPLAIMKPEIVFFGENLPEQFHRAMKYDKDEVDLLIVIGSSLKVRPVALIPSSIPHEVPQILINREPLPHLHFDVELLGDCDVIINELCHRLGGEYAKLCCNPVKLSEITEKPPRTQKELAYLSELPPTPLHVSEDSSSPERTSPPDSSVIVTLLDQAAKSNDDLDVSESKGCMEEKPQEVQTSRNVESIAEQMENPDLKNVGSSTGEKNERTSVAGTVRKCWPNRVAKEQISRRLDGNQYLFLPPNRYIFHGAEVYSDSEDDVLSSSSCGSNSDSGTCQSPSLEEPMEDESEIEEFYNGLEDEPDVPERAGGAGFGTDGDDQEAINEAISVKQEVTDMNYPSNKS
Assay: TAMRA based mass spectrometry assay of SIRT1 deacetylase activation
Type: biochemical
Conditions: concentration that results in 150% activation of SIRT1; TAMRA peptide substrate
assayReadout: TAMRA EC1.5 (μM)

smilesRecord | assayReadout | observedResult
O=C(Nc1cccc(N2CCOCC2)n1)c1ccnn2cc(-c3cccc(F)c3)nc12 | TAMRA EC1.5 (μM) | C (EC1.5>25 μM)
O=C(Nc1ncccn1)c1ccnc2cc(-c3cccc(C(F)(F)F)c3)nn12 | TAMRA EC1.5 (μM) | C (EC1.5>25 μM)
O=C(Nc1nccs1)c1ccnc2cc(-c3cccc(C(F)(F)F)c3)nn12 | TAMRA EC1.5 (μM) | C (EC1.5>25 μM)
O=C(Nc1cccnc1)c1cc(N2CCOCC2)nn2cc(-c3ccccc3C(F)(F)F)nc12 | TAMRA EC1.5 (μM) | B (EC1.5 1−25 μM)
O=C(Nc1ccnc2cc(-c3ccccc3C(F)(F)F)nn12)c1cccc(OC[C@@H](O)CO)n1 | TAMRA EC1.5 (μM) | A (EC1.5<1 μM)
O=C(Nc1ccnc2cc(-c3cccc(C(F)(F)F)c3)nn12)c1cscn1 | TAMRA EC1.5 (μM) | C (EC1.5>25 μM)
O=C(Nc1ccnc2cc(-c3ccccc3C(F)(F)F)nn12)c1nccs1 | TAMRA EC1.5 (μM) | B (EC1.5 1−25 μM)
O=C(Nc1cccc(N2CCOCC2)n1)c1ccnn2cc(-c3cccc(C(F)(F)F)c3)nc12 | TAMRA EC1.5 (μM) | A (EC1.5<1 μM)
O=C(Nc1ccnc(N2CCOCC2)c1)c1ccnn2cc(-c3cccc(C(F)(F)F)c3)nc12 | TAMRA EC1.5 (μM) | C (EC1.5>25 μM)
O=C(Nc1nccs1)c1cc(N2CCOCC2)nn2cc(-c3ccccc3C(F)(F)F)nc12 | TAMRA EC1.5 (μM) | B (EC1.5 1−25 μM)

----------
Target: SIRT1 (Homo sapiens)
Experiment: TAMRA based mass spectrometry assay of SIRT1 deacetylase activation
Format: biochemical
Details: concentration that results in 150% activation of SIRT1; TAMRA peptide substrate
assayReadout: TAMRA EC1.5 (μM)

molecule | targetUnderTest | assayReadout | observedResult
O=C(Nc1ccncc1)c1ccnc2cc(-c3cccc(C(F)(F)F)c3)nn12 [Compound 86] | SIRT1 (Homo sapiens) | TAMRA EC1.5 (μM) | C (EC1.5>25 μM)
O=C(Nc1cccnc1)c1cc(N2CCOCC2)nn2cc(-c3cccc(C(F)(F)F)c3)nc12 [Compound 50] | SIRT1 (Homo sapiens) | TAMRA EC1.5 (μM) | C (EC1.5>25 μM)
O=C(Nc1ccnc2cc(-c3cccc(C(F)(F)F)c3)nn12)c1ncccn1 [Compound 71] | SIRT1 (Homo sapiens) | TAMRA EC1.5 (μM) | B (EC1.5 1−25 μM)
O=C(Nc1ccnc2cc(-c3ccccc3C(F)(F)F)nn12)c1ccn[nH]1 [Compound 110] | SIRT1 (Homo sapiens) | TAMRA EC1.5 (μM) | B (EC1.5 1−25 μM)

----------
Molecular target: SIRT1 (Homo sapiens, UniProt Q96EB6)
Assay: Trp mass spectrometry assay of SIRT1 deacetylase activation
Format: biochemical
Details: concentration that results in 150% activation of SIRT1; Trp peptide substrate

compound | TRP EC1.5 (μM)
O=C(Nc1nccs1)c1cc(N2CCOCC2)nn2cc(-c3ccccc3F)nc12 [Compound 37] | C (EC1.5>25 μM)
O=C(Nc1ccncc1)c1cc(N2CCOCC2)nn2cc(-c3cccc(F)c3)nc12 [Compound 29] | C (EC1.5>25 μM)
O=C(Nc1ccnc2cc(-c3ccccc3C(F)(F)F)nn12)c1cccc(OCC(O)CO)n1 (centres unmarked) [Compound 65] | A (EC1.5<1 μM)
O=C(Nc1nccs1)c1ccnc2cc(-c3ccccc3C(F)(F)F)nn12 [Compound 79] | A (EC1.5<1 μM)
Cc1cc(C)nc(C(=O)Nc2ccnc3cc(-c4ccccc4C(F)(F)F)nn23)c1 [Compound 106] | C (EC1.5>25 μM)
O=C(Nc1ccnc2cc(-c3ccccc3C(F)(F)F)nn12)c1ccncn1 [Compound 62] | C (EC1.5>25 μM)
O=C(Nc1cnccn1)c1ccnc2cc(-c3ccccc3C(F)(F)F)nn12 [Compound 99] | C (EC1.5>25 μM)

----------
Target: SIRT1 (Homo sapiens, UniProt Q96EB6)
Assay: TAMRA based mass spectrometry assay of SIRT1 deacetylase activation
Type: biochemical
Conditions: percent maximum fold activation relative to control (100%); TAMRA peptide substrate
assayReadout: TAMRA % Fold Act

smilesRecord | observedResult
O=C(Nc1cccnc1)c1cc(N2CCOCC2)nn2cc(-c3ccccc3F)nc12 | B (Fold Activation<350%)
O=C(Nc1nccs1)c1ccnn2cc(-c3ccccc3Cl)nc12 | B (Fold Activation<350%)
O=C(Nc1ccccn1)c1cc(N2CCOCC2)nn2cc(-c3ccccc3Cl)nc12 | B (Fold Activation<350%)
O=C(Nc1ccnc2cc(-c3ccccc3C(F)(F)F)nn12)c1ncccn1 | A (Fold activation≧350%)
O=C(Nc1ccnc(N2CCOCC2)c1)c1ccnn2cc(-c3ccccc3F)nc12 | B (Fold Activation<350%)
O=C(Nc1ccnc(N2CCOCC2)c1)c1ccnn2cc(-c3ccccc3C(F)(F)F)nc12 | A (Fold activation≧350%)
O=C(Nc1cccc(CN2CCOCC2)n1)c1ccnc2cc(-c3ccccc3C(F)(F)F)nn12 | A (Fold activation≧350%)
O=C(Nc1cccnc1)c1ccnc2cc(-c3cccc(C(F)(F)F)c3)nn12 | B (Fold Activation<350%)
O=C(Nc1ccnc2cc(-c3ccccc3C(F)(F)F)nn12)c1ncc(F)cc1F | A (Fold activation≧350%)

----------
Target: SIRT1 (Homo sapiens)
Assay: TAMRA based mass spectrometry assay of SIRT1 deacetylase activation
Format: biochemical
Settings: concentration that results in 150% activation of SIRT1; TAMRA peptide substrate
assayReadout: TAMRA EC1.5 (μM)

smilesRecord | observedResult
O=C(Nc1ccncc1)c1cc(N2CCOCC2)nn2cc(-c3cccc(C(F)(F)F)c3)nc12 | C (EC1.5>25 μM)
O=C(Nc1ccncc1)c1ccnc2cc(-c3ccccc3C(F)(F)F)nn12 | B (EC1.5 1−25 μM)
O=C(Nc1ccccn1)c1cc(N2CCOCC2)nn2cc(-c3ccccc3C(F)(F)F)nc12 | B (EC1.5 1−25 μM)
O=C(Nc1ccncc1)c1cc(N2CCOCC2)nn2cc(-c3cccc(Cl)c3)nc12 | C (EC1.5>25 μM)
O=C(Nc1ccnc2cc(-c3ccccc3C(F)(F)F)nn12)c1ccncn1 | B (EC1.5 1−25 μM)
O=C(Nc1cccc(CN2CCOCC2)n1)c1ccnc2cc(-c3cccc(C(F)(F)F)c3)nn12 | C (EC1.5>25 μM)
O=C(Nc1ccnc2cc(-c3cccc(C(F)(F)F)c3)nn12)c1nccs1 | C (EC1.5>25 μM)
